Test system: MS2 coat protein
experiment: apparent KD of MS2 coat protein; designed switch direction (-1 OFF switch, 1 ON switch): -1; higher = weaker reporter binding
details: input ligand: none
quantity_measured: apparent KD of MS2 coat protein (nM)

• GCAGACGUAGUGAGGAUAUGCUCUACCUCGGUAGAGCAGAAGGCACAUGAGGAUCACCCAUGUGGUUCCUCAUC [Omei Ex4B B19] (Eterna round: R97, puzzle: Brourd's mod of Exclusion 4) = 15.6
• UUUGUACAUGAGGAUCACCCAUGUCAGGAUAUGUCAUCGCCGUCUGCCAGACGGCGUCACAGAAGGGACAUGCA [EX1 C.16] (Eterna round: R97, puzzle: Exclusion 1) = 34.1
• UAUGGUUAAGUCAGGAUAUGCUCAUAGAGGUCUAUGCAGAAGGGACAUGAGGAUCACCCAUGUAUGGUCGUGUU [Ex4 #64] (Eterna round: R97, puzzle: Brourd's mod of Exclusion 4) = 53.6
• AAUUAAUUAAUUAAUUAAUACAUGAGGAUCACCCAUGUAAUUUAAGAUCCUUAUACAAGCUUUGAUCUCGUAAUUAA [Stov1/4-A1] (Eterna round: R97, puzzle: Sensor, turn-off variant 1) = 93.8
• GUCAGCUCGUGAGGAUAUACAUGCGUGCUUCGGCACGAAUUUAAGAUCACAUGAGGAUCACCCAUGUAGAAGGUACGAGCUGAC [ENG2/3-C1] (Eterna round: R96, puzzle: Exclusion NG 2) = 387

----------
System: MS2 coat protein
experiment: apparent KD of MS2 coat protein; designed switch direction (-1 OFF switch, 1 ON switch): -1; higher = weaker reporter binding
details: input ligand: FMN 200 uM
Decision: apparent KD of MS2 coat protein >= 60 nM yields MET, all other cases yield NOT MET.

* UUAAUUAAUUAAUUAGAUCCUCACAUGAGGAUCACCCAUGUGCAGGAUAUCAGCUCGAUUAGAGCUGAGAAGGGCACUAUUAAU [ExNG3/10-B4] (Eterna round: R96, puzzle: Exclusion NG 3) | NOT MET
* UUUAAGGGAAUUAAGAUCACAUGAGGAUCACCCAUGUAUAUAUAGGAUAUCAGCUCGUUUAGAGCUGAGAAGGAUAUAUACAUA [ExNG3/6-A2] (Eterna round: R96, puzzle: Exclusion NG 3) | MET
* UUUGGGCAAGCAUGAUCCCACAUGAGGAUCACCCAUGUGUUCGUCUUAUAGGCUGCUGAGGCUUUUGCCUCGGUGGC [LRO Sensor-off var1-01 loose mod of D91 from Mat747] (Eterna round: R97, puzzle: Sensor, turn-off variant 1) | MET
* GUAUGAGGAGGAUAUACGUAUCCUUGACCCUGCUAGCGCGGACAUGAGGAUCACCCAUGUAGAAGGUUUCGACA [Eternabot (L1) Solution 46] (Eterna round: R97, puzzle: Exclusion 2) | NOT MET
* UAAUUAAUUAAUAAAUAAUACAUGAGGAUCACCCAUGUAGAUCCUACAUACAAUUUAAGUAGCUCGUCUUAUUAUUA [Sensor-V1 #61] (Eterna round: R97, puzzle: Sensor, turn-off variant 1) | MET

----------
Tested on: MS2 coat protein
experiment: apparent KD of MS2 coat protein; designed switch direction (-1 OFF switch, 1 ON switch): 1; higher = weaker reporter binding
details: input ligand: microRNA oligo, concentration not stated
Returns one of rule met or rule not met; rule met when apparent KD of MS2 coat protein is >= 30 nM.

* GUAGCAUGCAGGCAGGAUAUUCAUAUUAAAACAUGAGGAUCACCCAUGUAGGCCGAAAGGCCUUGGGAGAAGGGCCACAUGCUAC [Xeonanis - 18] (Eterna round: R96, puzzle: Same State 2) | rule met
* GCUUCACAUGAGGAUCACCCAUGUCUUCGGAGUCGAGGAUAUGGUAACUGUAAACAGUUGCCAGAAGGCGAGGAGC [SS1 - Son of Teenbexe v9] (Eterna round: R96, puzzle: Same State 1) | rule met
* AUACAUGAGGAUCACCCAUGUAAUUAAUUAACUAGUAAGAUCUAGGAUAUCAGCUCGUUUAGAGCUGAGAAGGAGAUCACAUGU [SSNG3/21-A3] (Eterna round: R96, puzzle: Same State NG 3) | rule not met
* CGCAGGCACGUAGGAUAUCUAGCGUGGGAGGCUAGAGAAGGAUGGAAUAACAUGAGGAUCACCCAUGUCGCCUCGCGGAAAUAA [Diorverire] (Eterna round: R96, puzzle: Same State NG 1) | rule not met
* CCAACGUACAAUUUAGAUCUACAUGAGGAUCACCCAUGUACGGAGGAUAUCAGCUCGAUUAGAGCUGAGAAGGCCGAAUUAAUU [SSNG3/2-A2] (Eterna round: R96, puzzle: Same State NG 3) | rule met

----------
Test system: MS2 coat protein
experiment: apparent KD of MS2 coat protein; designed switch direction (-1 OFF switch, 1 ON switch): -1; higher = weaker reporter binding
details: input ligand: FMN 200 uM
# apparent KD of MS2 coat protein annotations
quantity_measured: apparent KD of MS2 coat protein (nM)

* ACUGGUCGAGGAUAUACAAUCGUGCUUCGGCACGUAAGAUCACAUGAGGAUCACCCAUGUAGAAGGUGACCAGU [E2/1-B2] (Eterna round: R97, puzzle: Exclusion 2) | 135
* AUUGAUAGCACAGGAUAUUGAGAUUUGAAUUGACAAGAAGGGUGUACAUGAGGAUCACCCAUGUAAUGGGAGAGUGGUUGAUUA [JR_ExcNG1_Sub002] (Eterna round: R96, puzzle: Exclusion NG 1) | 365
* GUCGCUUUUUGUUUGUUUUACAUGAGGAUCACCCAUGUACGUUGGUUACAAUAAAGUUCCGUGGCGGAUCAAUCUGA [Eternabot (L1) Solution 12] (Eterna round: R97, puzzle: Sensor, turn-off variant 1) | 24.9

----------
Tested on: MS2 coat protein
experiment: apparent KD of MS2 coat protein; designed switch direction (-1 OFF switch, 1 ON switch): 1; higher = weaker reporter binding
details: input ligand: none
quantity_measured: apparent KD of MS2 coat protein

• AAGAUGCUCGUAGGAUAUUGGAAAGGAAGUGUACAAGAAGGACGGUGUCACAUGAGGAUCACCCAUGUUACAGUCUAAGGACUA [PowerStrip SSNG 1.16] (Eterna round: R96, puzzle: Same State NG 1) = 20.3 nM
• ACUCGGCAGAUAGGAUAUCCUGCAUGGAUAGUAGGAGAAGGAUCGUGCGCACAUGAGGAUCACCCAUGUGCCAAAUAAUAACAA [Reatedor] (Eterna round: R96, puzzle: Same State NG 1) = 18.4 nM
• ACAUGAGGAUCACCCAUGUAUUUAUAUGAAUCUUAAGUUACGUAGGAUAUCGUCUAUACUAUCAACGAGAAGGACGAACUCAAA [JR_SSNG3_Sub069] (Eterna round: R96, puzzle: Same State NG 3) = 17.4 nM
• UUGAUGUACUGAGGAUAUCGUGUCGUCUGAUUUUACAUGAGGAUCACCCAUGUGGGUUGUGGUAUCGAGAAGGCAGUUUUCUUA [JR_SSNG2_Sub029] (Eterna round: R96, puzzle: Same State NG 2) = 158 nM
• UUAAUAAUGAUAGGAUAUACAUGAGGAAUCCUCGUAGAAGGAUCAUGACAUGAGGAUCACCCAUGUAACGCUCAGAAGAGCGUA [Mat - Same State NG 1 - JL mod - D43] (Eterna round: R96, puzzle: Same State NG 1) = 516 nM

----------
Test system: MS2 coat protein
experiment: apparent KD of MS2 coat protein; higher = weaker reporter binding
details: Eterna round: R107; input ligand: tryptophan 2.4 mM
# label = bin(measured apparent KD of MS2 coat protein), where bins are L = under 20 nM, M = from 20 nM up to 50 nM, H = 50 nM and over

• AUACAUGAGGAUCACCCAUGUUACACUGAAGGAGCGACAUGUUUGUCAGGUAGGUCGCAGUGAAGUUUAAUAAUUCUUUGAUCUU [#06 Same State - Arginine A] = M
• GGGUACAUCGCGGCCGCCACUCAUGUAAAUGCGUGAGGAUCACCCAUGCCGAUGGAGACAUCGGAGAGGACCGGGUGAUGUACCG = M
• AUGUAGAACCGAAGGAGCGCGAUGACAUGAGGAUCACCCAUGUAUUUGUGGUGGCUUCGAUCGCAGGUAGGUCGCGGAAGUAGUA [#04 Exclusion - Arginine B] = H
• AGUAUCAGUGGAAGGAGCGUCGCGACUGCUACAUGAGGAUCACCCAUGUCGCCUUGAGCGCGACAGGUAGGUCGCCACGGUAGGC [SS-ArgB1] = M
• AGCGAUAUGCAUGAUACCAGCUACAUGAGGAUCACCCAUGUGCGUCAGAAAUGACUGUGUAGCCCUUGGCAGCAUAGAGCAUGUA [Exclusion - Theophylline B (Freestyle 11)] = M
• ACAUGAGGAUCACCCAUGUACAUCACCCGACGAGGACCGGUACGGCCGCCACUCGGGUAUAUAUAUACAUCGGGUGAUUUUGCAU [#21 Tryptophan A Same State] = M
• ACAUGAGGAUCACCCAUGUUAAACACAGAAGGAGCGUGAAGGAACACAGGUAGGUCGCUGUACUUAUUGAGUAUUCACUCGAUAC [JR_Nu_SSArginiA_Sub028] = L
• GUUAUGGACCUGGAUACCAGCUGGUACAAGGGCGGUCUACAUGAGGAUCACCCAUGUGUCAGCCCUUGGCAGCCAGCAACCCACU [Cele] = L
• GAAACGUAGGUGGAGCGGUGAAAUGGCGAUACCAGCGUGGAAACAUGCCCUUGGCAGCGUUAGAACAUGAGGAUCACCCAUGUUU [#22 Exclusion-TheophyllineA] = L
• UACAUGAGGAUCACCCAUGUAUGUAUCGAAGGAGCGCGUGUAAACGCAGGUAGGUCGCGAACAUGAGGAUCACACAUGAGGAUCA [Same State Arginine A] = M
• AGCCAUGGAAACAUGGCGGCGGCAUGAGCGCGAGGACCGGUACGGCCGCCACUCGGGCAACAUGAGGAUCACCCAUGUUCCUCAU [ETA NP+V+V2 #20 +-Same Structure] = H
